IC50 values for the compounds below.
Target: ROMK (Kir1.1) channel (Homo sapiens (Human), UniProt P48048)
Sequence (P48048 whole entry): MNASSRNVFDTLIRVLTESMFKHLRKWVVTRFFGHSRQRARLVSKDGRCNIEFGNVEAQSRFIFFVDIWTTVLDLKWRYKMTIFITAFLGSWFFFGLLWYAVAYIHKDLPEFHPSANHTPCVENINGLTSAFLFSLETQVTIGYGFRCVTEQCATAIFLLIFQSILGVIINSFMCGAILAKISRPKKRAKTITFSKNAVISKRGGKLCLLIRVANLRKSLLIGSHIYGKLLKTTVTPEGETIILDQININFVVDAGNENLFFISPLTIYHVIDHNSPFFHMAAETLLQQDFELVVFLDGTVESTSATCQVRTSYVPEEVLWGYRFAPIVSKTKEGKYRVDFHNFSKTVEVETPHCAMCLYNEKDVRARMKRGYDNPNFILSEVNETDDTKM
Experiment: Thallium Flux Assay
Experimental: A Thallium Flux Assay was performed on each of the final product compounds of the Examples. This assay has been described previously; see, e.g., PCT Published Application WO 2013/062900.
Quantity name: IC50 (nM)

INSERT INTO measurements (compound, readout_number) VALUES
  ('C[C@@H]1C[C@]2(CC[C@H](NCc3cnc(-n4cnnn4)cn3)CC2)C(=O)N1C1=CC(=O)OC1 [Example 26]', 190),
  ('CC1=C(N2CC[C@]3(CC[C@@H](N(CC(N)=O)Cc4ccc(-n5cnnn5)nc4)CC3)C2=O)COC1=O [Example 141]', 680),
  ('CC1=C(N2CC[C@]3(CC[C@@H](N(C)Cc4ccc(-n5cnnn5)cn4)CC3)C2=O)COC1=O [Example 88]', 7),
  ('CC1=C(N2CC[C@]3(CC[C@H](NCCc4ccc5c(c4)COC5=O)CC3)C2=O)COC1=O [Example 3]', 200),
  ('CC1=C(N2C(=O)[C@]3(CC[C@H](NCc4ccc5c(c4)Cn4nnnc4-5)CC3)C[C@@H]2C)COC1=O [Example 56]', 520),
  ('C[C@@H]1C[C@]2(CC[C@H](NCc3ccc(-n4cnnn4)nc3)CC2)C(=O)N1C1=CC(=O)OC1 [Example 27]', 38),
  ('CC1=C(N2CC[C@]3(CC[C@@H](NC[C@H](O)c4ccc5c(c4C)COC5=O)CC3)C2=O)COC1=O [Example 78]', 210),
  ('CC1=C(N2CC[C@]3(CC[C@@H](N(C)Cc4ncc(-n5cnnn5)nc4C)CC3)C2=O)COC1=O [Example 125]', 22),
  ('CC1=C(N2CC[C@]3(CC[C@](C)(NCc4cnc(-n5cnnn5)cn4)CC3)C2=O)COC1=O [Example 68]', 140),
  ('CC1=C(N2CC[C@]3(CC[C@H](NCc4ccc5c(c4C)COC5=O)CC3)C2=O)COC1=O [Example 4]', 350),
  ('CN(Cc1cnc(-n2cnnn2)cn1)C1CCC2(CC1)CCN(C1=CC(=O)OC1)C2=O (centres unmarked) [Example 128]', 93),
  ('CC1=C(N2CC[C@]3(CC[C@@H](NCc4cnc5c(c4)Cn4nnnc4-5)CC3)C2=O)COC1=O [Example 52]', 160),
  ('C[C@H]1C[C@]2(CC[C@H](NCc3ccc4c(c3)Cn3nnnc3-4)CC2)C(=O)N1C1=CC(=O)OC1 [Example 62]', 20),
  ('CC1=C(N2CC[C@]3(CC[C@@H](N(C)Cc4cc5c(cc4C)-c4nnnn4C5)CC3)C2=O)COC1=O [Example 122]', 26),
  ('CC1=C(N2CC[C@]3(CC[C@@H](N[C@@H](C)c4ccc(-n5cnnn5)cn4)CC3)C2=O)COC1=O [Example 29]', 20),
  ('CC1=C(N2CC[C@]3(CC[C@@H](N[C@H](C)c4cnc(-n5cnnn5)cn4)CC3)C2=O)COC1=O [Example 24]', 120),
  ('CC1=C(N2CC[C@]3(CC[C@@H](N(C)Cc4nnc(-n5cnnn5)cc4C)CC3)C2=O)COC1=O [Example 107]', 22),
  ('C[C@H]1C[C@]2(CC[C@@H](N(C)Cc3ccc(-n4cnnn4)nn3)CC2)C(=O)N1C1=CC(=O)OC1 [Example 104]', 41),
  ('CC1=C(N2CC[C@]3(CC[C@H](N(C)Cc4ccc(-n5cnnn5)cn4)CC3)C2=O)COC1=O [Example 87]', 550),
  ('CC1=C(N2CC[C@]3(CC[C@@H](N(C)Cc4cnc(-n5cnnn5)cn4)CC3)C2=O)COC1=O [Example 92]', 29),
  ('CCN(Cc1ccc(-n2cnnn2)nc1)[C@H]1CC[C@]2(CCN(C3=C(C)C(=O)OC3)C2=O)CC1 [Example 134]', 470),
  ('CC1=C(N2CC[C@]3(CC[C@H](N(C)Cc4cnc(-n5cnnn5)cn4)CC3)C2=O)COC1=O [Example 91]', 690),
  ('CC1=C(N2CC[C@]3(CC[C@H](N(CCO)Cc4ccc(-n5cnnn5)nc4)CC3)C2=O)COC1=O [Example 131]', 160),
  ('CC1=C(N2CC[C@]3(CC[C@@H](NCc4ccc5c(c4C)Cn4nnnc4-5)CC3)C2=O)COC1=O [Example 54]', 32),
  ('CC1=C(N2CC[C@]3(CC[C@@H](NCc4ccc5c(c4)C(C)n4nnnc4-5)CC3)C2=O)COC1=O (some centres unmarked) [Example 53]', 19),
  ('CC1=C(N2CC[C@]3(CC[C@@H](N(C)Cc4ccc(-n5cnnn5)nc4)CC3)C2=O)COC1=O [Example 84]', 740);
